# System: Staphylococcus epidermidis
# Protocol Summary: Antimicrobial activity against ciprofloxacin-sensitive, SXT-resistant Staphylococcus epidermidis NRS60
# Assay type: functional
What MIC was measured for each of the following?
One number for each entry, in µg/mL.

O=C(O)c1cn(C2CC2)c2cc(N3CCNCC3)c(F)cc2c1=O
0.06
Nc1ncc(Cn2cc(CN3CCN(c4nc5c(cc4F)c(=O)c(C(=O)O)cn5C4CC4)CC3)nn2)c(N)n1
8

Next up:
Query :: Observed MIC on Staphylococcus epidermidis for C#CCNc1nc2c(cc1F)c(=O)c(C(=O)O)cn2C1CC1 , please.
Result :: 16

###

What MIC was measured for each of the following?
# Test system: Escherichia coli
# Protocol Summary: Antimicrobial activity against ciprofloxacin-, SXT-sensitive Escherichia coli ATCC 25922
# Format: functional
One number for each entry, in µg/mL.

Please review the entries below; each comes with its answer.
COc1cc(Cc2cnc(N)nc2N)cc2c1OCCN2
8
COc1cc(Cc2cnc(N)nc2N)cc(OC)c1OC [TRIMETHOPRIM]
0.125

Record MIC per entry; entries follow.
1. C#CCNc1nc2c(cc1F)c(=O)c(C(=O)O)cn2C1CC1
2. C#CCN1CCN(c2nc3c(cc2F)c(=O)c(C(=O)O)cn3C2CC2)CC1

Result ::
1: 16; 2: 0.25

###

What MIC was measured for each of the following?
# System: Staphylococcus epidermidis
# Protocol Summary: Antimicrobial activity against ciprofloxacin-sensitive, SXT-resistant Staphylococcus epidermidis NRS60
# Assay type: functional
One number for each entry, in µg/mL.

Please review the entries below; each comes with its answer.
[N-]=[N+]=Nc1nc2c(cc1F)c(=O)c(C(=O)O)cn2C1CC1
4
Nc1ncc(COCc2cn(-c3nc4c(cc3F)c(=O)c(C(=O)O)cn4C3CC3)nn2)c(N)n1
4

Query :: Please look up its MIC: C#CCN1CCN(c2nc3c(cc2F)c(=O)c(C(=O)O)cn3C2CC2)CC1
Result :: 0.5

###

Target chain: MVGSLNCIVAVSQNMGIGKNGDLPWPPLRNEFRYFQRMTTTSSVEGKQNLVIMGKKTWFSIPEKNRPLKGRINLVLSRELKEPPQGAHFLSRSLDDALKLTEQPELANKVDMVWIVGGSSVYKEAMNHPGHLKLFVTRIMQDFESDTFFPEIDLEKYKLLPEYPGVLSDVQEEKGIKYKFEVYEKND
pIC50: −log10 of the molar value.
Experimental Endpoint: pIC50

Query :: Please look up its pIC50: Nc1ncc(COCc2cn(-c3nc4c(cc3F)c(=O)c(C(=O)O)cn4C3CC3)nn2)c(N)n1
Result :: < 3.60

###

What MIC was measured for each of the following?
# Test system: Staphylococcus epidermidis
# Protocol Summary: Antimicrobial activity against ciprofloxacin-sensitive, SXT-resistant Staphylococcus epidermidis NRS60
# Format: functional

COc1cc(Cc2cnc(N)nc2Nc2nc3c(cc2F)c(=O)c(C(=O)O)cn3C2CC2)cc2c1OCCN2
> 64 µg/mL
COc1cc(Cc2cnc(N)nc2N)cc(OC)c1OC
> 64 µg/mL

Next up:
Query :: Please look up its MIC: COc1cc(Cc2cnc(Nc3nc4c(cc3F)c(=O)c(C(=O)O)cn4C3CC3)nc2N)cc2c1OCCN2
Result :: > 64 µg/mL

###

# System: Escherichia coli
# Protocol Summary: Antimicrobial activity against ciprofloxacin-, SXT-sensitive Escherichia coli ATCC 25922
# Type: functional
Experimental Endpoint: MIC

Please review the entries below; each comes with its answer.
Nc1ncc(CNc2nc3c(cc2F)c(=O)c(C(=O)O)cn3C2CC2)c(N)n1
> 64 µg/mL
COc1cc(Cc2cnc(N)nc2Nc2nc3c(cc2F)c(=O)c(C(=O)O)cn3C2CC2)cc2c1OCCN2
> 64 µg/mL

Next up:
Query :: Please look up its MIC: O=C(O)c1cn(C2CC2)c2cc(N3CCNCC3)c(F)cc2c1=O
Result :: ≤ 0.03 µg/mL
